// data source = PubChem BioAssay AID493170

Biological target: Ubiquitin carboxyl-terminal hydrolase 2 (Homo sapiens) (UniProt O75604)
Sequence (O75604 whole entry, looked up): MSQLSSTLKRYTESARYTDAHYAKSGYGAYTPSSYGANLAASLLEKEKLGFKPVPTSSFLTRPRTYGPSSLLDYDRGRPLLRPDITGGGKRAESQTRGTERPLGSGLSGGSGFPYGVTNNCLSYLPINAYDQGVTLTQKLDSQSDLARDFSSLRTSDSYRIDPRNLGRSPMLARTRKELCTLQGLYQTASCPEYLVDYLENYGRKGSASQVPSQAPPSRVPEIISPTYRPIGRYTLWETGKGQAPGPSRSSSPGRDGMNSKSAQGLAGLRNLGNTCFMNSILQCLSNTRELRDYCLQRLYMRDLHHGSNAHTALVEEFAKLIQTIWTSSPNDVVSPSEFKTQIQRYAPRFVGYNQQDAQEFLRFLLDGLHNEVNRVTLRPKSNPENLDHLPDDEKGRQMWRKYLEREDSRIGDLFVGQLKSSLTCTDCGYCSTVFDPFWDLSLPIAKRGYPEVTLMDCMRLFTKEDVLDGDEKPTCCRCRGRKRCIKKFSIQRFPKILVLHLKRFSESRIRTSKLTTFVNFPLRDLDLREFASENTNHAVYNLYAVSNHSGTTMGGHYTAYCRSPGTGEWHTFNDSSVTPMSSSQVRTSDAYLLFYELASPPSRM
Assay: Ub-rhodamine 110 based assay for inhibitors Ubiquitin-specific Protease USP2a; further: nearly all actives have a fitted effect of over 50% in size
Details: USP2a Ub-rhodamine110 cleavage, fluorescence; series mostly up to 38.3 µM
Inconclusive results are not listed. Active and inactive are the calls of the source. The call rests on the fitted dose curve; in most records, active means well fitted inhibition curve with a large enough effect; inconclusive means small, poorly fitted or top-dose-only effect, or effect the other way; inactive means flat fitted curve, though single readings scatter.
# output must be one of T (active), F (inactive)

Name the outcome recorded for O=C1NCC(CN(c2ccccc2)c2ccccc2)O1 (configuration not stated) in the assay.
F

Entry to check: O=C1Nc2ccc(S(=O)(=O)N3CCCCCC3)c3cccc1c23
F

Now consider CC(C)C(=O)Nc1ccc(C(=O)N2CCCCCC2)cc1 and answer again.
F

Please give the result for O=C(CSc1ccc(Br)c2cccc(Cl)c12)Nc1ccc(S(=O)(=O)Nc2nccs2)cc1 too.
T

Subsequent entry: O=C(COc1ccccc1)N1CCN(C(=O)Cc2ccccc2)CC1
F

Next: COc1ccc(-c2csc(N3CCN(C(=O)c4ccco4)CC3)n2)cc1
F

What do you get for C=C(CCC(=O)c1ccccc1)C(=O)c1ccccc1 ?
F

* * *

Molecular target: Ubiquitin carboxyl-terminal hydrolase 2 (Homo sapiens) (UniProt O75604)
Assay: Ub-rhodamine 110 based assay for inhibitors Ubiquitin-specific Protease USP2a; further: nearly all actives have a fitted effect of over 50% in size
Details: USP2a Ub-rhodamine110 cleavage, fluorescence; series mostly up to 38.3 µM
Results filed as inconclusive are left out. Calls of active or inactive are those of the source. Calls follow the shape of the dose curve; as a rule, active = well fitted inhibition curve with a large enough effect; inconclusive = small, poorly fitted or top-dose-only effect, or effect the other way; inactive = flat fitted curve, though single readings scatter.
Bench note: report the call from active, inactive

Dear colleague, could you share the recorded outcome for O=C(O)/C=C/c1ccc(S(=O)(=O)Nc2ccccc2C(=O)Nc2ccc(F)cc2)cc1 when you have a moment?
inactive

Also check COc1ccc(NC(=O)C2CC(=O)OC2c2ccccc2)cc1 (stereo not given)
inactive

Now consider CCN=C1SC(C(=O)Nc2cccc(OCC)c2)CC(=O)N1CC (stereo not given) and answer again.
inactive

Now the same for Cc1ccc(S(=O)(=O)N2[C@@H](c3ccccc3F)C(C(=O)O)=CC[C@H]2c2ccc(Cl)c(Cl)c2)cc1
active

Also COCCn1nnnc1CN(CCc1ccccc1)Cc1cc2ccc(C)cc2[nH]c1=O , if possible.
inactive

And what about the compound C#CCOCCOCCOCCNc1nc(N2CCN(C(=O)CCCCCCCCCCNC(=O)[C@H](CCCCN)n3cc(CCO)nn3)CC2)nc(N2CCN(C(=O)CCCCCCCCCCNC(=O)[C@H](CCCCN)n3cc(C[C@@H](C)CC)nn3)CC2)n1 ?
inactive

Now the same for Cc1ccc(C)c(S(=O)(=O)N2CCN(C(=O)/C=C/c3ccco3)CC2)c1
active

Input COc1cc(/C=C/[N+](=O)[O-])ccc1OCc1cccc(C(=O)O)c1
inactive

Could you do the same for CCN1C(=O)CSc2ccc(C(=O)NC3CCCCC3)cc21 , please?
inactive

Please do the same for N#CCc1ccc(NC(=O)/C=C/c2ccc([N+](=O)[O-])o2)cc1 as well.
active

And for O=C(CSc1nc2ccccc2[nH]1)Nc1ccc2c(c1)OCCO2 ?
inactive

Follow-up entry: CCCc1cc(=O)oc2cc(C)c(CN3CCCC3)c(O)c12
active

Would you kindly repeat that for O=C(NC12CC3CC(CC(C3)C1)C2)C1=COCCO1 ?
inactive

Request: Cn1nc(CC(=O)NCc2ccc(F)cc2)c2ccccc2c1=O
inactive

Can you check O=C(COC(=O)c1cccc(S(=O)(=O)N2CCc3ccccc32)c1)NC1CCS(=O)(=O)C1 (stereo not given) next?
inactive

Also, CCOc1ccc2[nH]c(=O)c(CN(CCc3ccccc3)C(=O)c3cnccn3)cc2c1 please.
inactive

Next compound up: Cc1cccc2c1N(CCCOc1ccc(C(C)(C)C)cc1)C(=O)C2=O
inactive

Now the compound C#CCOCCOCCOCCNc1nc(N2CCN(C(=O)CCCCCCCCCCNC(=O)[C@@H](CCC(=O)O)n3cc(CCCCCN)nn3)CC2)nc(N2CCN(C(=O)CCCCCCCCCCNC(=O)[C@H](CCCCN)n3cc(C[C@@H](C)CC)nn3)CC2)n1
inactive

// same read-out, input: O=C(COC(=O)c1ccc(NS(=O)(=O)c2cccs2)cc1)Nc1nc2c(F)c(F)c(F)cc2s1
active

Also Cn1c(SCc2nc3ccccc3s2)nnc1-c1cccs1 ?
inactive

Another compound: CCN1C(=O)C(NC(C)=O)c2cc(OC)ccc21 (stereo not given)
inactive

Again, but for CC(C)Cn1c(SCC(N)=O)nnc1-c1cccc(S(=O)(=O)N2CCOCC2)c1
inactive

Param item: Cc1n[nH]c(C)c1S(=O)(=O)N1CCCC(C(=O)Nc2nccs2)C1 (stereo not given)
inactive

Field entry: COc1ccccc1NC(=O)N1CCN(c2ccccn2)CC1
inactive

Do the same for COc1cc(C(=O)OC2CCCCC2=O)cc(OC)c1C (stereo not given) please
active

What about this compound? O=C(C[n+]1ccc(C(=O)N/N=C/c2ccc(OCc3ccccc3)cc2)cc1)c1ccccc1
active

Next compound up: Nc1ccccc1S(=O)(=O)NC1=NCCCCC1
inactive

Next record, please: CCOC(=O)c1c(C)n(-c2ccc(C)cc2)c2ccc(OCC(O)CN3CCN(C)CC3)cc12 (stereo not given)
inactive

Same lookup for CC1CCc2c(sc3nc(CN4CCOCC4)nc(NS(=O)(=O)c4cccc([N+](=O)[O-])c4)c23)C1 (stereo not given) , please.
active

Entry Nc1cc(N)nc(SCC(=O)N2CCCCC2)n1 please
inactive

Proceed to O=C(NC1CCCCC1)C(c1ccco1)N(C(=O)c1csnn1)c1cccc(F)c1 (stereo not given)
inactive

Do the same for CCCCc1ccc(/C=C2/C(=O)ON=C2c2ccccc2)s1 please
inactive

Please do the same for FC(F)(F)c1cnc2c(c1)Nc1ccccc1S2 as well.
inactive

COc1cc(OC)cc(-c2c(C#Cc3ccsc3)c3cc(-c4ccc(OC)c(OC)c4)ccc3n2C)c1 ?
inactive

Subsequent entry: CCOC(=O)c1ccc(NC(=O)C2=C(C)Nc3nc(CCCO)nn3C2c2cccc(C)c2)cc1 (stereo not given)
inactive
